Tested on: human IL-21R expressed on cells (human, UniProt Q9HBE5 20-538)
Sequence (Q9HBE5 20-538 limits assumed): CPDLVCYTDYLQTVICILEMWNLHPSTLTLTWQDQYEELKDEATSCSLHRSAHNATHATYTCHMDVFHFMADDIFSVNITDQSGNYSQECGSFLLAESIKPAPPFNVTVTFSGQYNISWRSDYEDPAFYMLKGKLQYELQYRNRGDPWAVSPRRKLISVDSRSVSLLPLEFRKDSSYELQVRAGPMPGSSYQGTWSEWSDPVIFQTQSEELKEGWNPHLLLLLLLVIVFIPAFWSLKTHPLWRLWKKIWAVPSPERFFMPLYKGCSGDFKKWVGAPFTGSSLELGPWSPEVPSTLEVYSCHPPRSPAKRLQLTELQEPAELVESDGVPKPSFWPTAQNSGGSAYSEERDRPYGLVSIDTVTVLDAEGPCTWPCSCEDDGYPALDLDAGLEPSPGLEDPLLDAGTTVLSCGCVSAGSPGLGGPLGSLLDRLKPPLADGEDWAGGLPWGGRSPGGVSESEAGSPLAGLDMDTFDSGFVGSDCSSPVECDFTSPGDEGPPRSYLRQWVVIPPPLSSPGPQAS
Test protocol: cell-based or functional assay
Measurement name: IC50 (nM) in Human IL-21R-BaF3 Neutralization Assay
Numbers only; they are read as nM.

Ask | Name the recorded IC50 (nM) in Human IL-21R-BaF3 Neutralization Assay for scFv L12 (scFv) scFv: QVQLQESGPGLVKTSETLSLTCAVSGYSISSGYYWGWIRQPPGKGLEWIGSISHTGNTYYNPPLKSRVTISVDTSKNQFSLKLSSVTAADTAVYYCARGGGISRPEYWGKGTLVTVSSGGGGSGGGGSGGGGSALSSELTQDPPVSVALGQTVTLTCQGDSLRTYYASWYQQKSGQAPILLLYGKHKRPSGIPDRFSGSTSGDTASLTITGAQAEDEADYYCVARGTRGNPHVLFGGGTQLTVL .
Reply | 2.6

Ask | I would be grateful if you could share the reported IC50 (nM) in Human IL-21R-BaF3 Neutralization Assay for scFv L4 (scFv) scFv: QVQLQESGPGLVKTSETLSLTCAVSGYSISSGYYWGWIRQPPGKGLEWIGSISHTGNTYYNPPLKSRVTISVDTSKNQFSLKLSSVTAADTAVYYCARGGGISRPEYWGKGTLVTVSSGGGGSGGGGSGGGGSALSSELTQDPPVSVALGQTVTLTCQGDSLRTYYASWYQQKSGQAPILLLYGKHKRPSGIPDRFSGSTSGDTASLTITGAQAEDEADYYCSTRSSKGNPHVLFGGGTQLTVL .
Reply | 2.1

Ask | Request the reported IC50 (nM) in Human IL-21R-BaF3 Neutralization Assay associated with scFv L10 (scFv) scFv: QVQLQESGPGLVKTSETLSLTCAVSGYSISSGYYWGWIRQPPGKGLEWIGSISHTGNTYYNPPLKSRVTISVDTSKNQFSLKLSSVTAADTAVYYCARGGGISRPEYWGKGTLVTVSSGGGGSGGGGSGGGGSALSSELTQDPPVSVALGQTVTLTCQGDSLRTYYASWYQQKSGQAPILLLYGKHKRPSGIPDRFSGSTSGDTASLTITGAQAEDEADYYCISRSIYGNPHVLFGGGTQLTVL
Reply | 15.1

Ask | Which IC50 (nM) in Human IL-21R-BaF3 Neutralization Assay is listed for scFv L19 (scFv) scFv: QVQLQESGPGLVKTSETLSLTCAVSGYSISSGYYWGWIRQPPGKGLEWIGSISHTGNTYYNPPLKSRVTISVDTSKNQFSLKLSSVTAADTAVYYCARGGGISRPEYWGKGTLVTVSSGGGGSGGGGSGGGGSALSSELTQDPPVSVALGQTVTLTCQGDSLRTYYASWYQQKSGQAPILLLYGKHKRPSGIPDRFSGSTSGDTASLTITGAQAEDEADYYCVARAVRGNPHVLFGGGTQLTVL ?
Reply | 4.5

Ask | So what does the record say about IC50 (nM) in Human IL-21R-BaF3 Neutralization Assay for scFv L15 (scFv) scFv: QVQLQESGPGLVKTSETLSLTCAVSGYSISSGYYWGWIRQPPGKGLEWIGSISHTGNTYYNPPLKSRVTISVDTSKNQFSLKLSSVTAADTAVYYCARGGGISRPEYWGKGTLVTVSSGGGGSGGGGSGGGGSALSSELTQDPPVSVALGQTVTLTCQGDSLRTYYASWYQQKSGQAPILLLYGKHKRPSGIPDRFSGSTSGDTASLTITGAQAEDEADYYCSTRAIHGNPHVLFGGGTQLTVL ?
Reply | 3.3
